TARGET_UNDER_TEST: Galectin-1 (Homo sapiens, UniProt P09382)
Sequence (P09382 whole entry): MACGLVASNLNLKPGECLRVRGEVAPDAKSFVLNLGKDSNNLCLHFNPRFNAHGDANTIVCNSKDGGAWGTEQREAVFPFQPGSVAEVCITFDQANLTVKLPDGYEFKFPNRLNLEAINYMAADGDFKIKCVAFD
ASSAY_METRIC: pKd
Please keep in mind that pKd is minus log10 of the molar concentration; only the number is needed.

Exercise: # query: pKd | item CO[C@@H]1O[C@H](CO)[C@H](O)[C@H](OC(=O)c2ccc(C)cc2)[C@@H]1OC(=O)c1ccc(F)cc1[N+](=O)[O-] | system: Galectin-1 (Homo sapiens, UniProt P09382)
Key: 2.68
